Data origin: patent USRE41209E1

test system: HX62; test: Inhibition of cell proliferation, human cancer cell lines in culture (HX62); format: cell-based; settings: Homo sapiens, HX62; read-out: concentration necessary to achieve a 50% decrease in cell proliferation
PROPERTY NAME: IC50 (µM)
One number for each entry, in µM.

// returns IC50 for CCc1ccccn1 with HX62; value = 36

* * *

system: CH1; assay: Inhibition of cell proliferation, human cancer cell lines in culture (CH1); assay type: cell-based; conditions: CH1; read-out: concentration necessary to achieve a 50% decrease in cell proliferation
Provide the reported IC50 of each item.
Numbers only, in nM.

# COMPOUND, IC50 (nM)
rows = [
    ("N.N.O=C([O-])C1(C(=O)[O-])CCC1.[Pt+2] [Carboplatin, reference compound]", 1300),
    ("N.N.[Cl][Pt][Cl] [Cisplatin, [PtCl2 (NH3)2], reference compound]", 120),
    ("Cc1ccnc(C)c1.N.[Cl][Pt][Cl]", 2300),
    ("Cc1cc[n+]([Pt-2]([NH3+])([OH])([OH])([Cl])[Cl])c(C)c1", 3100),
]

Next, consider the following compound.
Value of IC50 reported for the compound Cc1cccc[n+]1[Pt-2]([NH3+])([Cl])[Cl] is 1900
